Test system: HCoV-NL63
method: NL63-CoV antiviral assay (CPE scored microscopically)
settings: read-out: EC50: Effective concentration showing 50% inhibition of virus-induced CPE; HCoV-NL63 in Vero118
observable: EC50

Query: // returns reported EC50 for input COc1nc(N)ncc1-c1cn(COCCO)cn1
Response: 8.8 µM

* * *

Test system: Huh7 cells
settings: human
observable: CC50

Query: // returns reported CC50 for input Nc1nc2c(ncn2COCCO)c(=O)[nH]1 [Acyclovir, acyclovir, reference compound]
Response: > 1 mM

* * *

Tested on: Vero118 cells
method: Cytotoxicity in Vero118 cells (NL63 assay, cell viability scored microscopically)
settings: read-out: CC50: Cytotoxic concentration showing 50% inhibition of cell survival; Vero118 (HCoV-NL63 assay)
observable: CC50 (µM)
State just the number; it will be interpreted in µM.

Query: // returns reported CC50 for input COc1nc(N)ncc1-c1cn(COCCO)cn1
Response: 120
